The measured values listed here are drawn from the RNAGym collection of RNA variant scans (doi:10.1073/pnas.2313332121).

polymerase ribozyme fitness (log ratio) overview
B1: TPR 5TU (parent)
chain: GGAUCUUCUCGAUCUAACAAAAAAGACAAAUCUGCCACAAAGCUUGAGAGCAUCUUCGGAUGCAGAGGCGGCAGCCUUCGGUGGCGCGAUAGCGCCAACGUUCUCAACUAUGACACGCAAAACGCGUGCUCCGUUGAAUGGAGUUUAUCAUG

Variants of: B1
Assay: polymerase ribozyme fitness, log enrichment relative to wild type (log ratio); higher = more active; in vitro selection for triplet polymerase activity
Variants at the floor of the assay were thinned out.

{"mutant": "U9C A21U G48A A91U C99U", "polymerase ribozyme fitness (log ratio)": "≤ -4.2"}
{"mutant": "C54A C85A C105A", "polymerase ribozyme fitness (log ratio)": "≤ -4.2"}
{"mutant": "C38U C76U G81C", "polymerase ribozyme fitness (log ratio)": -0.0752}
{"mutant": "A3C C63G C118U", "polymerase ribozyme fitness (log ratio)": -0.545}
{"mutant": "G42C C43G U56A G59U C85U C125A U127C", "polymerase ribozyme fitness (log ratio)": "≤ -4.2"}
{"mutant": "A16U C63U", "polymerase ribozyme fitness (log ratio)": -1.7}
{"mutant": "U13C U78G C85A C116U", "polymerase ribozyme fitness (log ratio)": "≤ -4.2"}
{"mutant": "A19C U56A", "polymerase ribozyme fitness (log ratio)": 0.406}
{"mutant": "C8U A19C A40G C57U G92U G140A U146A", "polymerase ribozyme fitness (log ratio)": "≤ -4.2"}
{"mutant": "C69A C76A U109C", "polymerase ribozyme fitness (log ratio)": "≤ -4.2"}
{"mutant": "G84A A122G G140A G141A", "polymerase ribozyme fitness (log ratio)": "≤ -4.2"}
{"mutant": "G50U C96G", "polymerase ribozyme fitness (log ratio)": -0.544}
{"mutant": "A19C U56A G94A C99U U135A U148A U151G", "polymerase ribozyme fitness (log ratio)": "≤ -4.2"}
{"mutant": "A19U A24U G46U A49C U82G C99A", "polymerase ribozyme fitness (log ratio)": "≤ -4.2"}
{"mutant": "C5G A29G G46U A60G", "polymerase ribozyme fitness (log ratio)": "≤ -4.2"}
{"mutant": "A29C A39U C96A", "polymerase ribozyme fitness (log ratio)": "≤ -4.2"}
{"mutant": "G65A C75A G81U G94A C105U G140U", "polymerase ribozyme fitness (log ratio)": -3.7}
{"mutant": "A29C C36A U55A U61G C87A", "polymerase ribozyme fitness (log ratio)": "≤ -4.2"}
{"mutant": "U78G G141A", "polymerase ribozyme fitness (log ratio)": "≤ -4.2"}
{"mutant": "U4C A16C A17C", "polymerase ribozyme fitness (log ratio)": -0.602}
{"mutant": "C18G A23C A29G C51U C72G G81A G140U", "polymerase ribozyme fitness (log ratio)": "≤ -4.2"}
{"mutant": "A30U U82A C85A U104A", "polymerase ribozyme fitness (log ratio)": "≤ -4.2"}
